Sourced from patent US12290596B2

# protocol-details: Two-period crossover pharmacokinetics of nalmefene 3 mg IN vs 1.0 mg IM (Example 12)
# particulars: human, plasma, other: intranasal, 3 mg, Median plasma concentration, Treatment A 3.0 mg IN; […]
measured-property: concentration at 18 h (ng/mL)

smi=C=C1CC[C@@]2(O)[C@H]3Cc4ccc(O)c5c4[C@@]2(CCN3CC2CC2)[C@H]1O5 numeric_value=0.518

* * *

# protocol-details: Three-treatment crossover pharmacokinetics of IN nalmefene, three dosing regimens (Example 13)
# particulars: human, plasma, other: intranasal (IN spray), 6 mg, […], Median; Time 0.250; T3: 6 mg nalmefene HCl IN, two 0.1 mL sprays in one nostril
measured-property: concentration at […] (ng/mL)

smi=C=C1CC[C@@]2(O)[C@H]3Cc4ccc(O)c5c4[C@@]2(CCN3CC2CC2)[C@H]1O5 numeric_value=12.8
